# Residual activity (%) KP43 per entry
Test system: KP43 protease
Type: biochemical, Bacillus sp. KSM-KP43
Test Settings: 1 mM metal salt, 20 mM borate buffer (pH 10.0), 30° C., 20 minutes; no metal salt = 100%

{"columns": ["Molecule", "Target", "Result Units", "Residual activity (%) KP43"],
 "data": [
  ["[Cl][Cu][Cl] [CuCl2]", "KP43 protease", "%", 91],
  ["[Cl][Ni][Cl] [NiCl2]", "KP43 protease", "%", 92],
  ["[Cl-].[Cl-].[Mg+2] [MgCl2]", "KP43 protease", "%", 92]
]}
